Listing of IC50 toward IKKε (Homo sapiens), each taken from a published source.
readout label: IC50 (nM)

Use the examples below as a reference point.
>>> df
                                   molecule  quantity_unit  number
0  COCCn1cc(-c2cnc(N)c(C(=O)Nc3ccncc3)c2)cn1             nM    1900
1  NC(=O)c1nc(-c2ccncc2)sc1NC(=O)c1cn[nH]c1             nM     730
2  CC1C=C(c2c[nH]c3ncc(-c4ccc(CN5CCN(C)CC5)s4)cc23)CCN1C(=O)NC1CCCC1 (stereo not drawn)             nM      13
3  N#Cc1cc(-c2ccnc(Nc3cc(CO)ccn3)c2)ccc1OC1CCOCC1             nM      13

a: O=C(NC1COC1)N1CC=C(c2c[nH]c3ncc(-c4ccc(CN5CCOCC5)s4)cc23)CC1
b: N#Cc1cc(-c2ccnc(Nc3ccc(C4CCOCC4)nn3)c2)ccc1OC1CCOCC1
c: Cc1cnccc1NC(=O)c1cc(-c2ccc(CN3CCOCC3)s2)cnc1N
d: N#Cc1cc(-c2ccnc(Nc3cnn(CCO)c3)n2)ccc1OCC1CCC1
e: N#Cc1cc(-c2ccnc(Nc3ccc(CO)cn3)c2)ccc1OCC1CCC1
With regard to IC50, arrange the entries in ascending order, please. Hello, could you send the labels back in the order asked? Thank you.
a, d, b, e, c
(a: 3.4 nM, d: 18 nM, b: 39 nM, e: 200 nM, c: 910 nM)

1: N#Cc1cc(-c2ccnc(Nc3cncc(C4CCNCC4)n3)c2)ccc1OC1CCOCC1
2: CC(C)NC(=O)N1CCC(c2c[nH]c3ncc(-c4ccc(CN5CCN(C)CC5)s4)cc23)=CC1C (stereo not drawn)
Consider 1 and 2 . Which of these has its IC50 at a higher number? Give the label under which the chosen entry appears.
1
